Kindly supply the reported inhibition (INH) values for the records listed here.
assayName: Antioxidant activity assessed as DPPH radical scavenging activity at 10^-3 M incubated for 30 mins by spectrophotometry
Format: physicochemical
conditionNotes: 0.5 h, 1000 µM
Use % as the unit, but write only the number.

Query string: Return reported inhibition (INH); argument: Cn1cccc1-c1cc(-c2ccccc2)nc(N)c1C#N
Result string: 27

Query string: // repeat for CC1CCCc2c1nc1[nH]c(=S)nc(N)c1c2-c1cccn1C (stereo not drawn) and report
Result string: 26

Query string: // repeat for CCSc1nc(N)c2c(-c3cccn3C)c3c(nc2n1)C(C)CCC3 (stereo not drawn) and report
Result string: 28

---

System: HOP-62
assayName: Growth inhibition of human HOP62 cells after 48 hrs by sulforhodamine B assay
Format: functional
conditionNotes: HOP-62, 48 h
recordedMetric: GI50

Query string: Recorded GI50 for Cn1cccc1-c1cc(-c2ccccc2)nc(N)c1C#N with HOP-62, please?
Result string: 81.3 µM

Query string: // repeat for CC1CCCc2c1[nH]c(=O)c(C#N)c2-c1cccn1C (stereo not drawn) and report
Result string: > 100 µM

Query string: // repeat for COc1ccc(-c2cc(-c3cccn3C)c(C#N)c(N)n2)cc1OC and report
Result string: > 100 µM

Query string: // repeat for Cn1cccc1-c1cc(-c2cccs2)[nH]c(=O)c1C#N and report
Result string: 83.2 µM

Query string: // repeat for Cn1cccc1-c1cc(-c2cccs2)nc(N)c1C#N and report
Result string: > 100 µM

Query string: // repeat for COc1ccc(-c2cc(-c3cccn3C)c(C#N)c(=O)[nH]2)cc1OC and report
Result string: > 100 µM

Query string: // repeat for Cn1cccc1-c1cc(-c2ccccc2)[nH]c(=O)c1C#N and report
Result string: > 100 µM

Query string: // repeat for CC1CCCc2c1nc(N)c(C#N)c2-c1cccn1C (stereo not drawn) and report
Result string: > 100 µM

---

assayName: Growth inhibition of human RPMI8226 cells after 48 hrs by sulforhodamine B assay
Type: functional
conditionNotes: RPMI-8226, 48 h
recordedMetric: GI50

Query string: Return reported GI50; argument: COc1ccc(-c2cc(-c3cccn3C)c(C#N)c(N)n2)cc1OC
Result string: 38.9 µM

Query string: // repeat for Cn1cccc1-c1cc(-c2ccccc2)nc(N)c1C#N and report
Result string: 53.7 µM

Query string: // repeat for COc1ccc(-c2cc(-c3cccn3C)c(C#N)c(=O)[nH]2)cc1OC and report
Result string: > 100 µM

Query string: // repeat for CC1CCCc2c1[nH]c(=O)c(C#N)c2-c1cccn1C (stereo not drawn) and report
Result string: > 100 µM

Query string: // repeat for Cn1cccc1-c1cc(-c2cccs2)[nH]c(=O)c1C#N and report
Result string: > 100 µM

Query string: // repeat for Cn1cccc1-c1cc(-c2ccccc2)[nH]c(=O)c1C#N and report
Result string: > 100 µM

Query string: // repeat for Cn1cccc1-c1cc(-c2cccs2)nc(N)c1C#N and report
Result string: > 100 µM

Query string: // repeat for CC1CCCc2c1nc(N)c(C#N)c2-c1cccn1C (stereo not drawn) and report
Result string: 79.4 µM

---

Kindly supply the reported inhibition of growth at 10 µM values for the records listed here.
assayName: Growth inhibition of human HOP92 cells at 10 uM after 48 hrs by sulforhodamine B assay
Type: functional
conditionNotes: HOP-92, 48 h, read-out: GI
Use % as the unit, but write only the number.

Query string: Return reported inhibition of growth at 10 µM; argument: CCSc1nc(N)c2c(-c3cccn3C)c3c(nc2n1)C(C)CCC3 (stereo unspecified)
Result string: 28.7

Query string: // repeat for CC1CCCc2c1nc1ncn(N)c(=N)c1c2-c1cccn1C (stereo unspecified) and report
Result string: 11.3

Query string: // repeat for CC1CCCc2c1nc1[nH]c(=S)nc(N)c1c2-c1cccn1C (stereo unspecified) and report
Result string: 36.4

Query string: // repeat for CC1CCCc2c1nc1ncn3ncnc3c1c2-c1cccn1C (stereo unspecified) and report
Result string: 10.1

Query string: // repeat for CC1CCCc2c1nc(NC(=S)NC(=O)c1ccccc1)c(C#N)c2-c1cccn1C (stereo unspecified) and report
Result string: 32

Query string: // repeat for CC1CCCc2c1nc1[nH]c(=S)n(-c3ccccc3)c(=N)c1c2-c1cccn1C (stereo unspecified) and report
Result string: 23.6
